Ref: paper PMC5927774

For each of the molecules below, state its melting point.

Please review the entries below; each comes with its answer.
Field melting point (entry Cc1cccc(Cn2oc(=O)c(C)c2C)c1 ) reads 80 to 83 °C

Field melting point (entry CCc1cc(=O)on1C(=O)c1cccc(C)c1 ) reads 81 to 84 °C

Field melting point (entry CCC(=O)n1oc(=O)cc1C(C)C ) reads 92 to 95 °C

Field melting point (entry CC(C)c1cc(=O)on1C(=O)c1ccc(C#N)cc1 ) reads 113 to 115 °C

Now let's try a different one.
Field melting point (entry Cc1ccc(C(=O)n2oc(=O)cc2C(C)C)cc1 ) reads 77 to 79 °C

----------
protocol_description: Spontaneous hydrolysis (chemical stability) in aqueous buffer
Format: physicochemical
recorded_conditions: 25 °C, 0.05 M phosphate buffer, pH 7.3; read-out: t1/2 (h) Spontaneous hydrolysis (converted)
// assign true if half-life falls strictly below 8 h, else false (ties count as false)

Would you please look over these solved cases?
Exercise: Please state whether half-life is below 8 h for CCc1cc(=O)on1C(=O)c1cccc(C)c1 [Compound 2j]
Solution: true

Exercise: Please state whether half-life is below 8 h for CCc1c(C)n(C(=O)c2cccc(C)c2)oc1=O [Compound 2d]
Solution: true

Exercise: Please state whether half-life is below 8 h for CC(C)c1cc(=O)on1C(=O)c1ccc(C(F)(F)F)cc1 [Compound 2s]
Solution: true

Exercise: Please state whether half-life is below 8 h for Cc1ccc(C(=O)n2oc(=O)cc2C(C)C)cc1 [Compound 2o]
Solution: false

Exercise: Please state whether half-life is below 8 h for Cc1cccc(C(=O)n2oc(=O)cc2C(C)C)c1 [Compound 2n]
Solution: true

Exercise: Please state whether half-life is below 8 h for CCc1cc(=O)on1C(=O)C1CC1 [Compound 2i]
Solution: false

New cases:
Exercise: Please state whether half-life is below 8 h for CC(C)c1cc(=O)on1C(=O)C1CC1 [Compound 2l]
Solution: false

----------
target_desc: HNE (Homo sapiens)
Construct: purchased Calbiochem, La Jolla, CA
protocol_description: Compound hydrolysis in the presence of HNE
Type: biochemical
recorded_conditions: human, phosphate buffer supplemented with HNE (400 mU/ml), pH 7.3; 400 mU/ml HNE; read-out: t1/2 (h) In the presence HNE (converted)
measurement_kind: half-life (h)
Give bare numbers, in h.

Please review the entries below; each comes with its answer.
The measured half-life that Cc1cccc(C(=O)n2oc(=O)cc2C(C)C)c1 showed for HNE (Homo sapiens) is 2.6

The measured half-life that CC(C)c1cc(=O)on1C(=O)C1CC1 showed for HNE (Homo sapiens) is 4.3

The measured half-life that Cc1ccc(C(=O)n2oc(=O)cc2C(C)C)cc1 showed for HNE (Homo sapiens) is 3.4

The measured half-life that CC(C)c1cc(=O)on1C(=O)c1ccc(C(F)(F)F)cc1 showed for HNE (Homo sapiens) is 0.9

The measured half-life that CCc1c(C)n(C(=O)c2cccc(C)c2)oc1=O showed for HNE (Homo sapiens) is 3.5

Please state, for each entry, its recorded half-life.
1. CCc1cc(=O)on1C(=O)C1CC1
2. CCc1cc(=O)on1C(=O)c1cccc(C)c1

Solution:
1. 4
2. 2.1

----------
target_desc: HNE (human neutrophil elastase) (Homo sapiens)
protocol_description: HNE inhibition assay (fluorogenic substrate)
recorded_conditions: Table 1; mean ± SD of three independent experiments; NA = no inhibitory activity at the highest concentration tested (50 μM)
// assign condition met if IC50 falls strictly below 1000 nM, else condition not met (ties count as condition not met)

Exercise: Please state whether IC50 is below 1000 nM for CCOC(=O)c1c(C)c(=O)on1C(=O)c1cccc(C)c1
Solution: condition not met

Exercise: Please state whether IC50 is below 1000 nM for Cc1cccc(C(=O)n2oc(=O)c(C)c2C)c1
Solution: condition not met

Exercise: Please state whether IC50 is below 1000 nM for CCc1c(C)c(=O)on1C(=O)C1CC1
Solution: condition not met

Exercise: Please state whether IC50 is below 1000 nM for CCc1cc(=O)on1C(=O)C1CC1
Solution: condition met

Exercise: Please state whether IC50 is below 1000 nM for CCOC(=O)c1c(C)c(=O)on1C(=O)C1CC1
Solution: condition met

New cases:
Exercise: Please state whether IC50 is below 1000 nM for CCc1c(C)n(C(=O)c2cccc(C)c2)oc1=O
Solution: condition met

Exercise: Please state whether IC50 is below 1000 nM for CC(C)c1cc(=O)on1C(=O)c1cccc(C(F)(F)F)c1
Solution: condition not met

Exercise: Please state whether IC50 is below 1000 nM for CCc1c(C)c(=O)on1C(=O)c1cccc(C)c1
Solution: condition not met

Exercise: Please state whether IC50 is below 1000 nM for CCc1c(C)n(C(=O)C2CC2)oc1=O
Solution: condition met

Exercise: Please state whether IC50 is below 1000 nM for CC(C)c1cc(=O)on1C(=O)c1ccc(C#N)cc1
Solution: condition not met

----------
target_desc: HNE (human neutrophil elastase) (Homo sapiens, UniProt P08246)
Sequence (P08246 30-267): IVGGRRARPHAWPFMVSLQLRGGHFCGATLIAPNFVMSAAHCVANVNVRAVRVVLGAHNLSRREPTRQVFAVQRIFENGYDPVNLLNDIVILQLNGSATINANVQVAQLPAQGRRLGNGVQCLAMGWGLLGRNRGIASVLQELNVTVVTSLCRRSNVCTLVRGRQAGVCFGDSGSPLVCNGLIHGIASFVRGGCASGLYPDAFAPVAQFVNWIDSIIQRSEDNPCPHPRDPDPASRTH
protocol_description: HNE inhibition assay (fluorogenic substrate)
recorded_conditions: Table 1; mean ± SD of three independent experiments; NA = no inhibitory activity at the highest concentration tested (50 μM)
Response field class: string, computed from recorded IC50 by ranges label 0 (below 40 nM), label 1 (40 nM to below 600 nM), label 2 (600 nM or more)

Would you please look over these solved cases?
Exercise: Entry Cc1c(C)n(C(=O)C2CC2)oc1=O belongs to which category?
Solution: label 1

Exercise: Entry CC(C)c1cc(=O)on1C(=O)c1ccc(C(F)(F)F)cc1 belongs to which category?
Solution: label 0

New cases:
Exercise: Entry CC(C)c1cc(=O)on1C(=O)C1CC1 belongs to which category?
Solution: label 0

Exercise: Entry CC(C)c1cc(=O)on1C(=O)C1CCCC1 belongs to which category?
Solution: label 1

Exercise: Entry Cc1cccc(C(=O)n2oc(=O)cc2C(C)C)c1 belongs to which category?
Solution: label 1

Exercise: Entry CCC(=O)n1oc(=O)cc1C(C)C belongs to which category?
Solution: label 2

Exercise: Entry Cc1ccc(C(=O)n2oc(=O)cc2C(C)C)cc1 belongs to which category?
Solution: label 0

Exercise: Entry CC(C)c1cc(=S)on1C(=O)C1CC1 belongs to which category?
Solution: label 2

Exercise: Entry CCc1cc(=O)on1C(=O)c1cccc(C)c1 belongs to which category?
Solution: label 1

Exercise: Entry CC(C)c1cc(=O)on1C(=O)c1cccc(C#N)c1 belongs to which category?
Solution: label 2
